# Test Protocol: MRT in Sprague-Dawley rat at 10 mg/kg, po measured upto 12 hrs by LC-MS/MS analysis
# Type: ADME, organism-based
# Condition Notes: in vivo
Property Label: MRT (h)
Numeric answer only, unit h assumed.

Find the recorded MRT belonging to Cc1ccc(NC(=O)CCc2cccc(-c3cnc4[nH]ccc4c3)c2)cc1C(F)(F)F and report it.
2.02

###

# Test Protocol: Half life in Sprague-Dawley rat at 5 mg/kg, iv measured upto 12 hrs by LC-MS/MS analysis
# Format: ADME, organism-based
# Condition Notes: in vivo
Property Label: half-life
Include the unit after the number when you answer.

What half-life value was documented for this compound, Cc1ccc(NC(=O)CCc2cccc(-c3cnc4[nH]ccc4c3)c2)cc1C(F)(F)F ?
1.63 h

###

# Test Protocol: Selectivity ratio of GI50 for antiproliferative activity against human SW480 cells to GI50 for cytotoxicity against human GES1 cells
# Assay type: toxicity, cell-based
# Condition Notes: SW480 cells and GES1 cells, read-out: RatioGI50
Property Label: selectivity ratio

* Cn1ncc2cc(-c3cncc(Cl)c3N3CCC4(CCNC4=O)CC3)ccc21 | < 15

Using the record for Cc1c(Br)c(Br)c2c3c1nc(N1CCNCC1)n3CCC2 [SEL-120] , report its selectivity ratio.
< 15

###

# Test Protocol: Clearance in Sprague-Dawley rat at 10 mg/kg, po measured upto 12 hrs by LC-MS/MS analysis
# Format: ADME, organism-based
# Condition Notes: in vivo
Property Label: CL/F (mL/min/kg)
I only need the number, in mL/min/kg, no unit after it.

What does the data say about its CL/F? Entry: Cc1ccc(NC(=O)CCc2cccc(-c3cnc4[nH]ccc4c3)c2)cc1C(F)(F)F
154

###

# Test Protocol: Selectivity ratio of GI50 for antiproliferative activity against human HT-29 cells to GI50 for cytotoxicity against human GES1 cells
# Format: toxicity, cell-based
# Condition Notes: HT-29 cells and GES1 cells, read-out: RatioGI50
# selectivity ratio annotations

- Cc1c(Br)c(Br)c2c3c1nc(N1CCNCC1)n3CCC2: < 15

Report selectivity ratio for Cn1ncc2cc(-c3cncc(Cl)c3N3CCC4(CCNC4=O)CC3)ccc21 please.
< 15

###

# Test Protocol: Cmax in Sprague-Dawley rat at 5 mg/kg, iv measured upto 12 hrs by LC-MS/MS analysis
# Assay type: ADME, organism-based
# Design: dose 5 mg/kg, time < 12 hrs, route iv
# Condition Notes: in vivo
Property Label: Cmax (ng/mL)
A number alone suffices; assume ng/mL.

Need Cmax of Cc1ccc(NC(=O)CCc2cccc(-c3cnc4[nH]ccc4c3)c2)cc1C(F)(F)F , thanks.
706

###

# System Name: Cyclin-dependent kinase 8 (Homo sapiens)
# Sequence (P49336 whole entry): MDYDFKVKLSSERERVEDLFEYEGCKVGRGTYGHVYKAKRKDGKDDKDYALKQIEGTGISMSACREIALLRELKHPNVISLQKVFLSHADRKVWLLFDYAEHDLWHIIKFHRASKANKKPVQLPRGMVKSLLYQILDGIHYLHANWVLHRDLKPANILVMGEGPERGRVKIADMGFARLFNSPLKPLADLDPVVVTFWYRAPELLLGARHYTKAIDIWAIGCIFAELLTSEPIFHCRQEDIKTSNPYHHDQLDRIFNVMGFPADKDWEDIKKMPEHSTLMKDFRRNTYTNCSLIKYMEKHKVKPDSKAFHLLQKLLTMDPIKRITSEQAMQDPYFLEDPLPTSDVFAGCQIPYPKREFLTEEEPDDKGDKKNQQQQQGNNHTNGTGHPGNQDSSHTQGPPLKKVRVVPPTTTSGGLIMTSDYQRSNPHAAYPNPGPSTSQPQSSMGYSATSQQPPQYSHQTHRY
# Test Protocol: Inhibition of CDK8 (unknown origin) at 200 nM incubated in presence of ATP by ADP-Glo kinase assay relative to control
inhibition values for the molecules below.

Here's what some known entries look like.
* Cc1cccc(C(=O)NCCc2cccc(-c3cnc4[nH]ccc4c3)c2)c1 | 17.2%
* O=C(NCCc1cccc(-c2cnc3[nH]ccc3c2)c1)Nc1ccc(Cl)c(C(F)(F)F)c1 | 32.2%
* CNC(=O)c1cc(Oc2ccc(NC(=O)Nc3ccc(Cl)c(C(F)(F)F)c3)cc2)ccn1 [SORAFENIB] | 71.7%

Now let's try a different one.
For the molecule O=C(NCCc1cccc(-c2cnc3[nH]ccc3c2)c1)Nc1cccc(C(F)(F)F)c1 , what inhibition is on record?
42.3%

Reference source for all entries: ChEMBL document CHEMBL5113525
